System: RPMI-8226
test: NCI tumour cell line growth inhibition, 48 h
Activity calls are given as the source filed them. Rule as the data show it: active = GI50 up to about 1.1 µM and inactive = higher.
assay_readout: GI50

Previously resolved entries follow.
{"columns": ["compound", "observed"],
 "data": [
  ["CC1(C)COC(c2cccc(C3=NC(C)(C)CO3)c2Br)=N1", "> 100 µM (inactive)"],
  ["C=C1C(=O)O[C@H]2[C@H]([C@H](C)CCCC(C)=O)O[C@H]([C@@]3(C)CCC(=O)O3)C[C@@H]12", "31.8 µM (inactive)"]
]}

Query :: // lookup GI50 for COc1cc(/C=C2\N=C(c3ccccc3)N(c3nc4cc(C)c(C)cc4s3)C2=O)ccc1O
Result :: 20.8 µM (inactive)

Query :: // lookup GI50 for Nc1nc(Cl)c(N)c(NCC2(CO)CC2)n1
Result :: > 100 µM (inactive)

Query :: // lookup GI50 for CC1(C)CCC2=C(O1)/C(=N\Nc1ccc(F)cc1)c1ccccc1C2=O
Result :: 40.4 µM (inactive)

Query :: // lookup GI50 for CCOC(=O)N1N=C(/C(C)=N/OC)C(C)[S+]1[O-] (stereo unspecified)
Result :: > 100 µM (inactive)

---

Tested on: SK-MEL-2
test: NCI tumour cell line growth inhibition, 48 h
Active and inactive are the calls of the source. Rule as the data show it: active = GI50 up to about 1.1 µM and inactive = higher.
assay_readout: GI50

Previously resolved entries follow.
{"columns": ["compound", "test_target", "GI50"],
 "data": [
  ["COC(=O)C1=C(c2ccc3c(c2)OCO3)O[C@H](c2cc(OC)c(OC)c(OC)c2)[C@H]1COC(C)=O", "SK-MEL-2", "12.6 µM (inactive)"],
  ["CN(C)CCCNC(=O)c1cc(NC(=O)c2cc(NC(=O)c3cc(NC(=O)CCCn4ccc(CO)c4CO)cn3C)cn2C)cn1C", "SK-MEL-2", "25.6 µM (inactive)"],
  ["Cc1cccnc1N/C=C1\\C(=O)NC(=O)N(C)C1=O", "SK-MEL-2", "> 100 µM (inactive)"],
  ["O=C(N/C(=C\\c1ccccc1[N+](=O)[O-])c1nc2ccccc2[nH]1)c1ccccc1", "SK-MEL-2", "> 100 µM (inactive)"],
  ["COC(=O)c1ccc(O)c2nc3c(C=O)c(O)cc(O)c3nc12 [LOMOFUNGIN]", "SK-MEL-2", "2.9 µM (inactive)"]
]}

Let us move to another entry and its GI50.
Query :: // lookup GI50 for CCOC(=O)C1=C(C)N(CC(C)C)C2(O)C(OC)CC(=O)C3C(=O)N(c4ccccc4)C(=O)C132 (centres undefined)
Result :: 20.4 µM (inactive)

---

System: NCI-H522
test: NCI tumour cell line growth inhibition, 48 h
Active and inactive are the calls of the source. Rule as the data show it: active = GI50 up to about 1.1 µM and inactive = higher.
assay_readout: GI50

Previously resolved entries follow.
{"columns": ["smiles_notation", "GI50"],
 "data": [
  ["CC1=N/C(=C\\c2ccc(N)cc2)C(=O)N1Nc1nnc(NN2C(=O)/C(=C/c3ccc(N)cc3)N=C2C)c2ccccc12", "21.3 µM (inactive)"],
  ["CC1(C)CC(N(C(=O)/C=C/c2ccc([N+](=O)[O-])o2)C2CCCCC2)CC(C)(C)N1", "7.91 µM (inactive)"],
  ["Cc1ccc(/N=C2\\SC(=NN(C)C)S\\C2=N/c2ccc(C)cc2)cc1", "4.71 µM (inactive)"],
  ["CC(=O)Nc1ccc(NC(=O)c2c(Cl)c(Cl)c(Cl)c(Cl)c2-c2nc3ccccc3[nH]2)cc1", "36.7 µM (inactive)"],
  ["Cc1occc1C(=S)Nc1ccc(Cl)c(/C=N/OC(C)(C)C)c1", "11.7 µM (inactive)"]
]}

Query :: // lookup GI50 for C/C(Nc1ccc(Cl)cc1)=C1/CCOC1=O
Result :: > 70 µM (inactive)

---

Tested on: HT-29
test: NCI tumour cell line growth inhibition, 48 h
Active and inactive are the calls of the source. Rule as the data show it: active = GI50 up to about 1.1 µM and inactive = higher.
assay_readout: GI50

Query :: // lookup GI50 for COc1ccc(-c2nc3cc(C(F)(F)F)ccc3n2CC2CCCN3CCCCC23)cc1 (stereo unspecified)
Result :: 13.3 µM (inactive)

Query :: // lookup GI50 for COc1cc(/C=C2\N=C(c3ccccc3)N(c3nc4cc(C)c(C)cc4s3)C2=O)ccc1O
Result :: 31.1 µM (inactive)

Query :: // lookup GI50 for Cc1cnoc1/N=C1\C=C(Nc2oncc2C)C(=O)c2ccccc21
Result :: > 100 µM (inactive)

Query :: // lookup GI50 for Cc1nc(Cl)c(C)c(Cl)n1
Result :: > 44.7 µM (inactive)

Query :: // lookup GI50 for C/C(Nc1ccc(Cl)cc1)=C1/CCOC1=O
Result :: 30.1 µM (inactive)

Query :: // lookup GI50 for Cc1ccc(/N=N/C(=N\c2ccc(F)cc2)c2ccc(N(CCC#N)CCC#N)cc2)cc1
Result :: > 100 µM (inactive)

---

System: MDA-MB-435
test: NCI tumour cell line growth inhibition, 48 h
Active and inactive are the calls of the source. Rule as the data show it: active = GI50 up to about 1.1 µM and inactive = higher.
Overview of recorded GI50 for various compounds

Query :: Request: GI50, test system MDA-MB-435, entry O=S(=O)(CCn1c(Sc2ccccc2)c(Sc2ccccc2)c2ccccc21)c1ccccc1
Result :: > 100 µM (inactive)

Query :: Request: GI50, test system MDA-MB-435, entry CC(C)c1ccc(/C=C2\CSCC3=C2N=C2SCC(=O)N2C3c2ccc(C(C)C)cc2)cc1 (stereo not given)
Result :: > 100 µM (inactive)

Query :: Request: GI50, test system MDA-MB-435, entry COc1ccc2c(c1)-c1c(c3ccccc3n1CCN1CCOCC1)CC2
Result :: 34.5 µM (inactive)

Query :: Request: GI50, test system MDA-MB-435, entry C[C@]12[C@@H]3CC[C@H]1[C@@H](OC(=O)Nc1cc([N+](=O)[O-])cc([N+](=O)[O-])c1)C(=O)N2CC3
Result :: > 100 µM (inactive)

Query :: Request: GI50, test system MDA-MB-435, entry CC(=O)O[C@H]1C#C/C=C\C#CC[C@@H]2C(=O)N[C@@H]12
Result :: > 100 µM (inactive)

---

Overview of recorded GI50 for various compounds
Test system: HT-29
test: NCI tumour cell line growth inhibition, 48 h
Activity calls are given as the source filed them. No stated cut-off is given here; in the data, active = GI50 up to about 1.1 µM and inactive = higher.

Previously resolved entries follow.
{"columns": ["compound", "test_target", "GI50"],
 "data": [
  ["COC1C(CO)OC(n2c3c(Cl)cccc3c3c4c(c5c6cccc(Cl)c6[nH]c5c32)C(=O)NC4=O)C(O)C1O (centres undefined)", "HT-29", "0.244 µM (active)"],
  ["Cc1ccc(/N=C2\\SC(=NN(C)C)S\\C2=N/c2ccc(C)cc2)cc1", "HT-29", "> 100 µM (inactive)"],
  ["CCCCCCc1cc2cc(C(=O)Nc3cccc(F)c3)c(=N)oc2cc1O", "HT-29", "17.9 µM (inactive)"],
  ["CC1(C)CC(N(C(=O)/C=C/c2ccc([N+](=O)[O-])o2)C2CCCCC2)CC(C)(C)N1", "HT-29", "4.49 µM (inactive)"],
  ["Cc1cc(Cc2cc(C)c(NC(=O)C(=O)C3CCC4=C(SC5C=CC=CC5N4)C3=O)c(C(C)C)c2)cc(C(C)C)c1NC(=O)C(=O)C1CCC2=C(SC3C=CC=CC3N2)C1=O (centres undefined)", "HT-29", "58.6 µM (inactive)"]
]}

Query :: Request: GI50, test system HT-29, entry O=S(=O)(CCn1c(Sc2ccccc2)c(Sc2ccccc2)c2ccccc21)c1ccccc1
Result :: > 100 µM (inactive)

Query :: Request: GI50, test system HT-29, entry Cc1ccc([N+]2=NC(c3ccc([N+](=O)[O-])cc3)=NN(c3ccccc3)C2)cc1
Result :: 57.9 µM (inactive)

Query :: Request: GI50, test system HT-29, entry NS(=O)(=O)c1ccc(N2C(=O)C(=O)N(c3ccccc3)C2=S)cc1
Result :: > 100 µM (inactive)

---

Tested on: SK-OV-3
test: NCI tumour cell line growth inhibition, 48 h
Calls of active or inactive are those of the source. Cut-off read from the data, not from the text of the source: active = GI50 up to about 1.1 µM and inactive = higher.
Overview of recorded GI50 for various molecules

{"columns": ["molecule", "GI50"],
 "data": [
  ["C/C=C(\\C)C(=O)OC1CC(OC(C)=O)C2(C(=O)OC)COC3C2C1(C)C1C2(C(=O)OC)OCC1(C3O)C1(O)C3CC(C4(O)C=COC4O3)C1(C)O2 (stereo not drawn)", "> 100 µM (inactive)"],
  ["CC(=O)OC1COC(N2c3ccccc3[C@@H]3CCc4c([nH]c5ccccc45)[C@@H]32)C(OC(C)=O)C1OC(C)=O.CC(=O)OC1COC(N2c3ccccc3[C@H]3CCc4c([nH]c5ccccc45)[C@H]32)C(OC(C)=O)C1OC(C)=O (stereo partly drawn)", "44.9 µM (inactive)"],
  ["C=CCSC1=N/C(=C\\c2ccc(Cl)cc2)C(=O)N1CC=C", "42.8 µM (inactive)"],
  ["CCNC(CCCC(NCC)P(=O)(O)O)P(=O)(O)O (stereo not drawn)", "> 100 µM (inactive)"],
  ["O=C1CN(/N=C/c2ccc(-c3ccc(F)cc3)o2)C(=O)N1", "> 100 µM (inactive)"],
  ["O=C(CBr)N1CCC2(CC1)SSC1(CCN(C(=O)CBr)CC1)S2", "1.41 µM (inactive)"]
]}

Query :: // lookup GI50 for CCN(CC)c1ccc2cc(-c3csc(C)n3)c(=O)oc2c1
Result :: > 100 µM (inactive)

Query :: // lookup GI50 for O=C(O)C1CCCCC1C(=O)Nc1nc2ccccc2[nH]1 (stereo not drawn)
Result :: > 100 µM (inactive)
